# System: OV90
# experiment.notes: Primary qHTS to identify gynecologic anti-cancer compounds using libraries of approved drugs and bioactive compounds (AID 1345084); further: nearly all actives have a fitted effect of over 55% in size
# details: Gynecologic cancer cell panel viability, ATPlite luminescence, 48 h; series mostly up to 57.5 µM
Records with an inconclusive call do not appear. Active and inactive are the calls of the source. The call rests on the fitted dose curve; in most records, active means well fitted cell-killing curve with a large enough effect; inconclusive means small, poorly fitted or top-dose-only effect, or effect the other way; inactive means flat fitted curve, though single readings scatter.
Write down the outcome that applies. Available outcomes: active, inactive

# example entries with known answers
{"columns": ["compound", "class"],
 "data": [
  ["CC(O)CN1CCN(CC(=O)[O-])CCN(CC(=O)[O-])CCN(CC(=O)[O-])CC1.[Gd+3] (stereo not drawn)", "inactive"],
  ["CCCCCCCCc1ccc(O)cc1", "inactive"],
  ["CC(N[C@H]1C[C@H]1c1ccccc1)c1ccc2c(c1)OCCO2 (stereo partly drawn)", "inactive"],
  ["O=C(Oc1ccc([N+](=O)[O-])cc1)N1CCN(Cc2cccc(Oc3ccccc3)c2)CC1", "inactive"],
  ["Nc1ccc(N=Nc2ccccc2)cc1", "active"]
]}

Query: Each compound tested received a call. Report the one for Cc1[nH]nc2ccc(-c3cncc(OC[C@@H](N)Cc4c[nH]c5ccccc45)c3)cc12 .
Response: active

Query: # outcome recorded in this test, key = CCOCCOC(C)=O
Response: inactive

Query: Please let me know the test result on file for O=C(N[C@@H](COc1ccc2[nH]c(=O)[nH]c2c1)c1ccccc1)c1cccn(Cc2ccc(F)c(F)c2)c1=O .
Response: inactive

Query: # lookup: test call for COC(=O)c1cncn1C(C)c1ccccc1 (stereo not drawn)
Response: inactive

Query: Which outcome was entered for the compound O=S(=O)(O)C(F)(F)C(F)(F)C(F)(F)C(F)(F)C(F)(F)C(F)(F)C(F)(F)C(F)(F)F in this test?
Response: inactive

Query: For O=[N+]([O-])/N=C1\NCCN1Cc1ccc(Cl)nc1 , what call appears in the results of this test?
Response: inactive

Query: Hi team, can someone confirm the assay call for C=CCC1=C(C)C(OC(=O)C2C(C=C(C)C)C2(C)C)CC1=O (stereo not drawn) ?
Response: inactive

Query: Kindly provide the recorded test outcome for the following compound: CC(C)(C)NC[C@H](O)c1ccc(O)cc1Cl
Response: inactive

Query: // outcome(item) with item = O=[N+]([O-])c1c(Cl)c(Cl)cc(Cl)c1Cl
Response: inactive

---

# experiment.notes: Quantitative High-Throughput drug screen in 47 multiple myeloma cell lines against the NCATS MIPE library collection: ARP1_JJKsccF8 cell viability assay (AID 1918928; further: nearly all actives have a fitted effect of over 40% in size;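 on viability: 100% = DMSO only wells and 0% = medium only wells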)
# details: ARP1 myeloma cells viability, CellTiter-Glo ATP, 48 h; series mostly up to 45.8 µM
Records with an inconclusive call do not appear. The source made the active and inactive calls. Calls come from the whole dose curve; as a rule, active = well fitted cell-killing curve with a large enough effect; inconclusive = small, poorly fitted or top-dose-only effect, or effect the other way; inactive = no such curve, though single readings can be large or run the other way.
Respond with a class label; see yes = active, no = inactive

These solved cases illustrate the format of a correct answer.
{"columns": ["compound", "class"],
 "data": [
  ["CC[C@@H]1[C@@H](C)O[C@@](O)([C@@H](C)[C@H](O)[C@H](C)[C@H]2OC(=O)C=CC=C[C@@H](C)[C@@H]([C@@H](C)[C@@H](O)[C@H](C)[C@@]3(O)C[C@H](O[C@H]4C[C@H](O)[C@H](O)[C@H](C)O4)[C@H](CC)[C@@H](C)O3)OC(=O)C=CC=C[C@@H]2C)C[C@H]1O[C@H]1C[C@H](O)[C@H](O)[C@H](C)O1", "yes"],
  ["O=C(Oc1ccc([N+](=O)[O-])cc1)N1CCN(Cc2cccc(Oc3ccccc3)c2)CC1", "no"]
]}

Query: Tell me the assay call for CC(=O)O[C@@]12CO[C@H]1C[C@H](O)[C@@]1(C)C(=O)[C@H](O)C3=C(C)[C@@H](O)C[C@@](O)([C@@H](OC(=O)c4ccccc4)[C@@H]21)C3(C)C please.
Response: yes

Query: How did this test come out for Oc1ccc2c3c1O[C@H]1c4[nH]c5c(c4C[C@@]4(O)[C@@H](C2)N(CC2CC2)CC[C@]314)C[C@@]1(O)[C@H]2Cc3ccc(O)c4c3[C@@]1(CCN2CC1CC1)[C@H]5O4 ?
Response: no

Query: // outcome(item) with item = COc1cc([C@@H]2c3cc4c(cc3[C@@H](O)C3COC(=O)C32)OCO4)cc(OC)c1O (stereo not given in full)
Response: yes

---

# experiment.notes: qHTS of pediatric cancer cell lines to identify multiple opportunities for drug repurposing: Primary screen for Rh18 cells (AID 1347102); further: nearly all actives have a fitted effect of over 65% in size
# details: Rh18 rhabdomyosarcoma viability, CellTiter-Glo luminescence, 48 h; series mostly up to 46 µM
Results filed as inconclusive are left out. Calls of active or inactive are those of the source. Calls follow the shape of the dose curve; as a rule, active = well fitted cell-killing curve with a large enough effect; inconclusive = small, poorly fitted or top-dose-only effect; inactive = flat fitted curve, though single readings scatter.
Mark one answer only. Choices: 1.0 = active, 0.0 = inactive

Solved entries (count: 2):
{"columns": ["compound", "class"],
 "data": [
  ["CC[C@@H]1[C@@H](C)O[C@@](O)([C@@H](C)[C@H](O)[C@H](C)[C@H]2OC(=O)C=CC=C[C@@H](C)[C@@H]([C@@H](C)[C@@H](O)[C@H](C)[C@@]3(O)C[C@H](O[C@H]4C[C@H](O)[C@H](O)[C@H](C)O4)[C@H](CC)[C@@H](C)O3)OC(=O)C=CC=C[C@@H]2C)C[C@H]1O[C@H]1C[C@H](O)[C@H](O)[C@H](C)O1", 1.0],
  ["c1cc2c(cc1[C@H]1OC[C@H]3[C@H]1CO[C@H]3c1ccc3c(c1)OCO3)OCO2", 0.0]
]}

Query: recorded result category for CCCCOC(=O)c1ccccc1C(=O)OCc1ccccc1 in this test
Response: 0.0

Query: Outcome logged for CCCC[N+]1(C)[C@H]2CC(OC(=O)[C@H](CO)c3ccccc3)C[C@H]1[C@H]1O[C@H]12 (stereo not given in full) in this assay:
Response: 0.0

Query: Please share the test call associated with COC1=C[C@@H]2[C@@H]3Cc4ccc(OC)c(O)c4[C@]2(CCN3C)CC1=O .
Response: 0.0

Query: State the result this test recorded for C[C@]12CCC(=O)C(O)=C1CC[C@@H]1[C@H]3CCC(=O)[C@@]3(C)CC[C@@H]12 .
Response: 0.0

Query: How did this test come out for CS(=O)(=O)c1ccc(C(=O)C2C(=O)CCCC2=O)c([N+](=O)[O-])c1 ?
Response: 0.0

Query: For this compound, state the assay outcome: CC(=O)Nc1ccc(OC[C@](C)(O)C(=O)Nc2ccc([N+](=O)[O-])c(C(F)(F)F)c2)cc1
Response: 0.0

Query: State the result this test recorded for CC(N[C@H]1C[C@H]1c1ccccc1)c1ccc2c(c1)OCCO2 (stereo not given in full) .
Response: 0.0

Query: So what was the verdict on COCCOCCO in this test?
Response: 0.0

Query: Just curious, what result did CN[C@@H](C)[C@H](O)c1ccccc1 get here?
Response: 0.0

Query: Outcome logged for Cc1ccc(Cl)c(O)c1 in this assay:
Response: 0.0

Query: Returns: the outcome recorded for O=C1CCC[C@@H]2[C@H]3CCCN4CCC[C@@H](CN12)[C@@H]34 in this assay.
Response: 0.0

Query: Answer briefly: the call reported for O=C(O)C(Cl)Cl in this assay.
Response: 0.0

Query: Please indicate how the test categorized O=S(=O)(F)Cc1ccccc1 .
Response: 0.0

Query: Could you kindly confirm the outcome this assay logged for CCCCCCCCCC(CC)c1ccc(S(=O)(=O)O)cc1 (stereo not given) ?
Response: 0.0

Query: How did this test come out for CC(=O)N(C)c1cccc(-c2ccnc3c(C(=O)c4cccs4)cnn23)c1 ?
Response: 0.0

Query: For this compound, state the assay outcome: NC1CC1c1ccccc1 (stereo not given)
Response: 0.0

Query: Tell me the recorded outcome of this test for CC(C)[C@H]1C(=O)N[C@H](CO)Cc2c[nH]c3cccc(c23)N1C .
Response: 0.0

Query: Could you please tell me the result logged for Cc1[nH]nc2ccc(-c3cncc(OC[C@@H](N)Cc4c[nH]c5ccccc45)c3)cc12 in this assay?
Response: 1.0

---

# experiment.notes: qHTS Screen of the MIPE 4.0 Collection Against Ewings Sarcoma (TC71) (AID 1259253); further: nearly all actives have a fitted effect of over 40% in size
# details: TC71 Ewing sarcoma viability, CellTiter-Glo, 48 h; series mostly up to 45.8 µM
# Description: There is a large unmet medical need for treatments for Ewing sarcoma, a pediatric sarcoma. […] Using the NCATS developed oncology compound library called the Mechanism of Interrogation Plate (MIPE), four Ewing sarcoma cell lines were evaluated (TC32, TC71, RDES, EW8). Compounds, in a 12-point titration series, were incubated with cells for 48 hours and the read out was cell viability (CellTiter-Glo from Promega). […]
Records with an inconclusive call do not appear. Active and inactive are the calls of the source. The call rests on the fitted dose curve; in most records, active means well fitted inhibition curve with a large enough effect; inconclusive means small, poorly fitted or top-dose-only effect; inactive means no such curve, though single readings can be large or run the other way.
One label from this list, please: true (active), false (inactive)

Some entries whose results are on file:
{"columns": ["compound", "class"],
 "data": [
  ["C[C@]12CC[C@H]3[C@@H](CCC4=CC(=O)CC[C@@]43C)[C@H]1CC[C@H]2O", "false"],
  ["CC(C)N[C@@H]1CCn2c(=O)[nH]c3cccc(c32)[C@@H]1O", "true"],
  ["C[C@@H]1O[C@@H](O[C@@H]2C=C3CC[C@@H]4[C@@H](CC[C@]5(C)[C@H](c6ccc(=O)oc6)CC[C@@]45O)[C@@]3(C)CC2)[C@H](O)[C@H](O)[C@H]1O", "true"],
  ["CCOC(=O)c1c(C(C#N)=CN)c2ccc(Cl)c(Cl)c2n1C", "false"],
  ["C[C@@]12OC(=O)[C@]1([C@@H](O)[C@@H]1C=CCCC1)NC(=O)[C@H]2CCCl", "true"],
  ["C[C@]12CC[C@H]3[C@@H](CCC4=CC(=O)CC[C@@]43C)[C@H]1CC[C@H]2OC(=O)CCC1CCCC1", "false"],
  ["O=c1cccc2n1CC1CNC[C@H]2C1", "false"],
  ["C[C@]12CC[C@@H]3[C@@H](CCC4=CC(=O)CC[C@@H]43)[C@@H]1CC[C@@H]2OC(=O)CCc1ccccc1", "true"],
  ["NC1CC1c1ccccc1 (configuration not stated)", "false"],
  ["CCCN1CCO[C@@H]2c3cc(O)ccc3OC[C@@H]21", "false"]
]}

Query: Hi, sorry to bother you, what did the test record for COC[C@H]1OC(=O)c2coc3c2[C@@]1(C)C1=C(C3=O)[C@@H]2CC[C@H](O)[C@@]2(C)C[C@@H]1OC(C)=O ?
Response: true

Query: Answer briefly: the call reported for CC[C@@]1(O)C(=O)OCc2c1cc1n(c2=O)Cc2cc3ccccc3nc2-1 in this assay.
Response: true

The reported numbers originate from PubChem BioAssay (NCATS).
